assay-name: In vitro inhibition of calcium phosphate crystallization in human plasma (spectrophotometric)
Type: biochemical
condition: 0-100 μM, 1.5 mM phosphate, 12.5 mM calcium, pH 7.4, 30 min, rt, read-out: Relative Potency (EC50, inhibition of calcium phosphate crystallization)
attribute-measured: EC50

{"molecule": "CCCCCOC1C(OP(O)(O)=S)C(OCCCCC)C(OP(O)(O)=S)C(OP(O)(O)=S)C1OP(O)(O)=S (stereo not shown) [Compound 50]", "attribute-measured": "EC50", "experimental-value": "> 10 µM"}
{"molecule": "NCCCCCCCCCCO[C@@H]1[C@@H](OP(=O)(O)O)[C@H](OCCCCCCCCCCN)[C@@H](OP(=O)(O)O)[C@@H](OP(=O)(O)O)[C@H]1OP(=O)(O)O [Compound 15]", "attribute-measured": "EC50", "experimental-value": "> 10 µM"}
{"molecule": "CCCCCCCCCCOC1C(OP(=O)(O)O)C(OCCCCCCCCCC)C(OP(=O)(O)O)C(OP(=O)(O)O)C1OP(=O)(O)O (stereo not shown) [Compound 2]", "attribute-measured": "EC50", "experimental-value": "> 10 µM"}

Next, consider the following molecule.
Which EC50 reading was recorded for the molecule O=P(O)(O)O[C@@H]1[C@@H](OCCC2CCCC2)[C@H](OP(=O)(O)O)[C@H](OP(=O)(O)O)[C@H](OP(=O)(O)O)[C@H]1OCCC1CCCC1 [Compound 29] ?
≤ 5 µM

* * *

# Lookup of reported pEC50 keyed by entry
assay-name: In vitro inhibition of calcium phosphate crystallization in human plasma (spectrophotometric)
Type: biochemical
condition: 0-100 μM, 1.5 mM phosphate, 12.5 mM calcium, pH 7.4, 30 min, rt, read-out: Relative Potency (EC50, inhibition of calcium phosphate crystallization)
Description: The in vitro efficacy of the IP4-4,6 substituted derivatives (e.g., Compounds 1 to 53) of the invention on the inhibition of calcium phosphate crystallization in human plasma samples was evaluated according to a spectrophotometric assay previously described in the art (Ferrer M, et al., Sci Rep 2017; 7:6858, doi:10.1038/s41598-017-07203-x). A 96-well plate was employed. […]
pEC50: −log10 of the molar value.

Use the examples below as a reference point.
{"compound": "O=P(O)(O)OC1C(OCCCCCn2cncn2)C(OP(=O)(O)O)C(OP(=O)(O)O)C(OP(=O)(O)O)C1OCCCCCn1cncn1 (stereo not drawn) [Compound 17]", "pEC50": "< 5.00"}
{"compound": "O=P([O-])([O-])O[C@@H]1[C@@H](OCCCCCO)[C@H](OP(=O)([O-])[O-])[C@H](OP(=O)([O-])[O-])[C@H](OP(=O)([O-])[O-])[C@H]1OCCCCCO.[Na+].[Na+].[Na+].[Na+].[Na+].[Na+].[Na+].[Na+] [Compound 6]", "pEC50": "≥ 5.30"}
{"compound": "COCc1cn(CCCCOC2C(OP(=O)(O)O)C(OCCCCn3cc(COC)nn3)C(OP(=O)(O)O)C(OP(=O)(O)O)C2OP(=O)(O)O)nn1 (stereo not drawn) [Compound 37]", "pEC50": "5.00 to 5.30"}
{"compound": "O=C(O)CCCOC1C(OP(=O)(O)O)C(OCCCC(=O)O)C(OP(=O)(O)O)C(OP(=O)(O)O)C1OP(=O)(O)O (stereo not drawn) [Compound 52]", "pEC50": "≥ 5.30"}

Fill in the blank: the reported pEC50 of COCCCCCCCCCOC1C(OP(=O)(O)O)C(OCCCCCCCCCOC)C(OP(=O)(O)O)C(OP(=O)(O)O)C1OP(=O)(O)O (stereo not drawn) [Compound 12] is ____.
< 5.00

Same read-out for O=C(NCCCCCOC1C(OP(=O)(O)O)C(OCCCCCNC(=O)c2cccs2)C(OP(=O)(O)O)C(OP(=O)(O)O)C1OP(=O)(O)O)c1cccs1 (stereo not drawn) [Compound 49] ?
5.00 to 5.30

* * *

assay-name: In vitro inhibition of calcium phosphate crystallization in human plasma (spectrophotometric)
Type: biochemical
condition: 0-100 μM, 1.5 mM phosphate, 12.5 mM calcium, pH 7.4, 30 min, rt, read-out: Relative Potency (EC50, inhibition of calcium phosphate crystallization)
Recorded EC50 by entry

Before answering, review these 2 worked examples.
{"molecule": "O=P(O)(O)O[C@@H]1[C@@H](OCCCC(F)(F)F)[C@H](OP(=O)(O)O)[C@H](OP(=O)(O)O)[C@H](OP(=O)(O)O)[C@H]1OCCCC(F)(F)F", "EC50": "≤ 5 µM"}
{"molecule": "O=C(O)CCn1cc(CO[C@@H]2[C@@H](OP(=O)(O)O)[C@H](OCc3cn(CCC(=O)O)nn3)[C@@H](OP(=O)(O)O)[C@@H](OP(=O)(O)O)[C@H]2OP(=O)(O)O)nn1", "EC50": "≤ 5 µM"}

Consider now this further molecule.
# query: EC50 of entry O=C(NCCCCCOC1C(OP(=O)(O)O)C(OCCCCCNC(=O)c2ccccc2)C(OP(=O)(O)O)C(OP(=O)(O)O)C1OP(=O)(O)O)c1ccccc1 (stereo not drawn)
> 10 µM

* * *

Listing of recorded pEC50 by entry.
assay-name: In vitro inhibition of calcium phosphate crystallization in human plasma (spectrophotometric)
Assay type: biochemical
condition: 0-100 μM, 1.5 mM phosphate, 12.5 mM calcium, pH 7.4, 30 min, rt, read-out: Relative Potency (EC50, inhibition of calcium phosphate crystallization)
pEC50: −log10 of the molar value.

{"compound": "O=P(O)(O)OC1C(OCCCCCn2cccn2)C(OP(=O)(O)O)C(OP(=O)(O)O)C(OP(=O)(O)O)C1OCCCCCn1cccn1 (stereo not drawn) [Compound 16]", "experimental-value": "≥ 5.30"}

Return reported pEC50; argument: O=C(NCCCOC1C(OP(=O)(O)O)C(OCCCNC(=O)NC2CCCC2)C(OP(=O)(O)O)C(OP(=O)(O)O)C1OP(=O)(O)O)NC1CCCC1 (stereo not drawn) [Compound 47]
≥ 5.30

How about this compound: COCCCCCCCOC1C(OP(=O)(O)O)C(OCCCCCCCOC)C(OP(=O)(O)O)C(OP(=O)(O)O)C1OP(=O)(O)O (stereo not drawn) [Compound 11]
< 5.00

* * *

Each item that follows carries a reported EC50.
assay-name: In vitro inhibition of calcium phosphate crystallization in human plasma (spectrophotometric)
Format: biochemical
condition: 0-100 μM, 1.5 mM phosphate, 12.5 mM calcium, pH 7.4, 30 min, rt, read-out: Relative Potency (EC50, inhibition of calcium phosphate crystallization)

Looking for the measured EC50 of CCCNC(=O)NCCCCCOC1C(OP(=O)(O)O)C(OCCCCCNC(=O)NCCC)C(OP(=O)(O)O)C(OP(=O)(O)O)C1OP(=O)(O)O (stereo not drawn) [Compound 30] , can you help?
≤ 5 µM

// query: C#CCOC1C(OP(=O)(O)O)C(OCC#C)C(OP(=O)(O)O)C(OP(=O)(O)O)C1OP(=O)(O)O (stereo not drawn) [Compound 53]
≤ 5 µM

What about this compound? COC(=O)NCCCCCOC1C(OP(=O)(O)O)C(OCCCCCNC(=O)OC)C(OP(=O)(O)O)C(OP(=O)(O)O)C1OP(=O)(O)O (stereo not drawn) [Compound 25]
≤ 5 µM

* * *

Measured pEC50 by item
assay-name: In vitro inhibition of calcium phosphate crystallization in human plasma (spectrophotometric)
Assay type: biochemical
condition: 0-100 μM, 1.5 mM phosphate, 12.5 mM calcium, pH 7.4, 30 min, rt, read-out: Relative Potency (EC50, inhibition of calcium phosphate crystallization)
pEC50: −log10 of the molar value.

{"molecule": "O=P(O)(O)OC1C(OCCCc2cccc(C(F)(F)F)c2)C(OP(=O)(O)O)C(OP(=O)(O)O)C(OP(=O)(O)O)C1OCCCc1cccc(C(F)(F)F)c1 (stereo not drawn)", "attribute-measured": "pEC50", "experimental-value": "< 5.00"}
{"molecule": "COc1ccc(CCCOC2C(OP(=O)(O)O)C(OCCCc3ccc(OC)cc3)C(OP(=O)(O)O)C(OP(=O)(O)O)C2OP(=O)(O)O)cc1 (stereo not drawn)", "attribute-measured": "pEC50", "experimental-value": "5.00 to 5.30"}
{"molecule": "NCCCCCO[C@@H]1[C@@H](OP(=O)(O)O)[C@H](OCCCCCN)[C@@H](OP(=O)(O)O)[C@@H](OP(=O)(O)O)[C@H]1OP(=O)(O)O", "attribute-measured": "pEC50", "experimental-value": "≥ 5.30"}
{"molecule": "O=P(O)(O)OC1C(OCCCCCCCCCCO)C(OP(=O)(O)O)C(OP(=O)(O)O)C(OP(=O)(O)O)C1OCCCCCCCCCCO (stereo not drawn)", "attribute-measured": "pEC50", "experimental-value": "< 5.00"}

Field request: pEC50 | item: NCCCOC1C(OP(=O)(O)O)C(OCCCN)C(OP(=O)(O)O)C(OP(=O)(O)O)C1OP(=O)(O)O (stereo not drawn)
5.00 to 5.30

// query: COCCCCCCn1cc(COC2C(OP(=O)(O)O)C(OCc3cn(CCCCCCOC)nn3)C(OP(=O)(O)O)C(OP(=O)(O)O)C2OP(=O)(O)O)nn1 (stereo not drawn)
5.00 to 5.30
